measurement.setup: 293.15 K; 101 kPa; Liquid
Threshold-based label: viscosity under 3 mPa·s gives rule met, viscosity not under 3 mPa·s gives rule not met.

Below are worked cases with known answers.
CCC(C)O (configuration not stated)
rule not met
CCCO
rule met
CC1CCCC1
rule met
CC(C)O
rule met
CCO
rule met

Kindly review the next molecule as well.
Does this molecule meet the criterion viscosity < 3 mPa·s? CCCC(C)O (configuration not stated)
rule not met

====

measurement.setup: 303.15 K; 101 kPa; Liquid
Give measured speed of sound for each item. Keep answers brief.
Answers are plain numbers, in m/s.

Below: 2 molecules and their reported speed of sound.
CC(C)O
1121
CCCCO
1224

Please state, for each entry, its recorded speed of sound.
1. CC1CCCC1
2. CCCO
3. CCC(C)O (configuration not stated)
4. CCO
5. CCCC(C)O (configuration not stated)

1: 1150; 2: 1189; 3: 1194; 4: 1128; 5: 1214

====

Please provide measured mass density for the entries that follow.
measurement.setup: 293.15 K; 101 kPa; Liquid
Answers are plain numbers, in kg/m3.

CC(C)O
785.07
CCCC(C)O (configuration not stated)
809.04
CCO
789.75
CC1CCCC1
746.64
CCC(C)O (configuration not stated)
806.84
CCCO
803.59

// below: mass density requested for another compound
May I ask what mass density has been recorded for CCCCO ?
809.5

====

measurement.setup: 298.15 K; 101 kPa; Liquid
reported.metric: mass density (kg/m3)
One number for each entry, in kg/m3.

Worked examples, 2 molecules total:
CC(C)O [propan-2-ol]
780.9
CCCC(C)O (stereo unspecified) [pentan-2-ol]
805.01

Consider the following items and state reported mass density for each.
1. CCC(C)O (stereo unspecified) [butan-2-ol]
2. CCO [ethanol]
3. CCCCO [butan-1-ol]
4. CCCO [propan-1-ol]

1: 802.72; 2: 785.46; 3: 805.75; 4: 799.58

====

measurement.setup: 298.15 K; 101 kPa; Liquid
± gives the expanded uncertainty stated by the source.
For each record, write down the corresponding speed of sound.
Please answer in the form of a number followed by its unit of measurement.

CCO [ethanol]
1145 ± 1 m/s
CC1CCCC1 [methylcyclopentane]
1174 ± 5 m/s

For every item below, please supply its speed of sound.
1. CCC(C)O (configuration not stated) [butan-2-ol]
2. CCCCO [butan-1-ol]
3. CCCC(C)O (configuration not stated) [pentan-2-ol]
4. CCCO [propan-1-ol]
5. CC(C)O [propan-2-ol]

["1212 ± 1 m/s", "1240 ± 1 m/s", "1232 ± 2 m/s", "1206 ± 2 m/s", "1139 ± 5 m/s"]

====

measurement.setup: 303.15 K; 101 kPa; Liquid
Lab note: cut-off is 2 mPa·s. Strictly less in viscosity is Met. Exactly 2 mPa·s or more is Not met.

viscosity under 2 mPa·s? Item: CCCO
Met

====

Exercise: state measured viscosity for each of the molecules provided.
measurement.setup: 303.15 K; 101 kPa; Liquid
Give bare numbers, in mPa·s.

Recorded viscosity, per entry:
CCCCO
2.255
CCO
0.987
CC(C)O
1.763

Kindly review the next molecule as well.
Fill blank: measured viscosity of the molecule CCCC(C)O (centres undefined) is ____.
2.774
